Tested on: Staphylococcus aureus
Assay: Antibacterial activity against Staphylococcus aureus ATCC 25923
Type: functional
Response field label takes met when MIC is strictly below 1000 µg/mL and not met in all other cases.

Lab log: compare recorded MIC with 1000 µg/mL; is it strictly lower for CC1(C)S[C@@H]2[C@H](NC(=O)[C@H](N)c3ccccc3)C(=O)N2[C@H]1C(=O)O ?
met

Answer whether the compound CCOC(=O)C1=C(C)NC(C)=C(C(=O)OCC)C1c1ccc(OC)c(OC)c1 has MIC strictly less than 1000 µg/mL
not met

Please determine if CCOC(=O)C1=C(C)NC(C)=C(C(=O)OCC)C1c1cccc([N+](=O)[O-])c1 is below 1000 µg/mL in terms of MIC.
not met

Does the reported MIC of the following compound sit strictly below 1000 µg/mL? CCOC(=O)C1=C(C)NC(C)=C(C(=O)OCC)C1c1cc(OC)c(OC)c(OC)c1
not met

is_below(MIC, 1000 µg/mL) for CCOC(=O)C1=C(C)NC(C)=C(C(=O)OCC)C1c1ccccc1Cl ?
met

Regarding CCOC(=O)C1=C(C)NC(C)=C(C(=O)OCC)C1c1cccc(O)c1 , kindly confirm whether its MIC is beneath 1000 µg/mL.
not met

In the record for CCOC(=O)C1=C(C)NC(C)=C(C(=O)OCC)C1c1ccc(OC)cc1 , is MIC less than 1000 µg/mL?
not met

Lab note: confirm whether the reported MIC for this compound is below 1000 µg/mL, equality not counting. compound: CCOC(=O)C1=C(C)NC(C)=C(C(=O)OCC)C1c1cc(OC)ccc1OC
met

Does this compound meet the criterion MIC < 1000 µg/mL? CCOC(=O)C1=C(C)N=C(C)/C(=C(/O)OCC)C1
not met

* * *

Test system: Pseudomonas aeruginosa
Experiment: Antibacterial activity against Pseudomonas aeruginosa ATCC 27853
Assay type: functional
So I've got a bunch of molecules here, and I need their log10(MIC) values.
// units: µg/mL (pre-log); metric: MIC; scale: log10

Tell me measured log10(MIC) for CCOC(=O)C1=C(C)NC(C)=C(C(=O)OCC)C1c1cc(OC)ccc1OC please.
3.40

Provide log10(MIC) value for the following molecule: CC1(C)S[C@@H]2[C@H](NC(=O)[C@H](N)c3ccccc3)C(=O)N2[C@H]1C(=O)O [AMPICILLIN]
0.30

State its log10(MIC) for this molecule: CCOC(=O)C1=C(C)NC(C)=C(C(=O)OCC)C1c1ccccc1Cl
2.40

Please give measured log10(MIC) of the following entry: CCOC(=O)C1=C(C)NC(C)=C(C(=O)OCC)C1c1cccc(O)c1
3.10

Please look at this molecule and report its log10(MIC): CCOC(=O)C1=C(C)NC(C)=C(C(=O)OCC)C1c1cccc([N+](=O)[O-])c1
3.70

* * *

Tested on: Klebsiella pneumoniae
Experiment: Antibacterial activity against ampicillin-resistant Klebsiella pneumoniae clinical isolate
Type: functional
Assay metric: MIC (µg/mL)
Could you give me the number in µg/mL? Just the number is fine.

Check the records and state MIC for CCOC(=O)C1=C(C)NC(C)=C(C(=O)OCC)C1c1ccc(Cl)cc1
31.2

Output measured MIC for this item: CCOC(=O)C1=C(C)NC(C)=C(C(=O)OCC)C1c1ccc(O)c(OC)c1
31.2

Consider the compound CCOC(=O)C1=C(C)NC(C)=C(C(=O)OCC)C1c1cc(OC)c(OC)c(OC)c1 and give its recorded MIC.
250

Determine from records and report MIC for CCOC(=O)C1=C(C)NC(C)=C(C(=O)OCC)C1c1ccc(OC)c(OC)c1
125

Assign MIC to the following record: CCOC(=O)C1=C(C)N=C(C)/C(=C(/O)OCC)C1
62.5

Return reported MIC. Input compound: CCOC(=O)C1=C(C)NC(C)=C(C(=O)OCC)C1c1cccc(O)c1
62.5

Using known records, supply MIC for CCOC(=O)C1=C(C)NC(C)=C(C(=O)OCC)C1c1ccc(O)cc1
125

Look up and report measured MIC for this entry: CCOC(=O)C1=C(C)NC(C)=C(C(=O)OCC)C1c1cccc([N+](=O)[O-])c1
125

Identify measured MIC associated with CCOC(=O)C1=C(C)NC(C)=C(C(=O)OCC)C1c1ccccc1Cl
125

Tell me MIC reported for CCOC(=O)C1=C(C)NC(C)=C(C(=O)OCC)C1c1ccccc1
125

Provide one value: measured MIC of CCOC(=O)C1=C(C)NC(C)=C(C(=O)OCC)C1c1cc(OC)ccc1OC
125

Give recorded MIC. CCOC(=O)C1=C(C)NC(C)=C(C(=O)OCC)C1c1ccc(OC)cc1
125

Name the recorded MIC of the compound listed here: CCOC(=O)C1=C(C)NC(C)=C(C(=O)OCC)C1c1ccccc1O
31.2

* * *

Test system: Pseudomonas aeruginosa
Assay: Antibacterial activity against Pseudomonas aeruginosa ATCC 27853
Type: functional
true (1) if MIC is below 1000 µg/mL. false (0) if not; exact matches included in false (0).

Determine whether this compound shows MIC lower than 1000 µg/mL (ties excluded): CCOC(=O)C1=C(C)N=C(C)/C(=C(/O)OCC)C1
false (0)

Hi there! Is MIC for CCOC(=O)C1=C(C)NC(C)=C(C(=O)OCC)C1c1ccccc1 below 1000 µg/mL, do you know?
false (0)

Does CCOC(=O)C1=C(C)NC(C)=C(C(=O)OCC)C1c1ccc(O)cc1 have MIC strictly under 1000 µg/mL?
false (0)

Consider the compound CCOC(=O)C1=C(C)NC(C)=C(C(=O)OCC)C1c1ccc(OC)c(OC)c1 . Is its MIC strictly less than 1000 µg/mL?
false (0)

Lab note: confirm whether the reported MIC for this compound is below 1000 µg/mL, equality not counting. compound: CCOC(=O)C1=C(C)NC(C)=C(C(=O)OCC)C1c1ccc(O)c(OC)c1
true (1)

Input CCOC(=O)C1=C(C)NC(C)=C(C(=O)OCC)C1c1cc(OC)c(OC)c(OC)c1 ; condition: MIC strictly below 1000 µg/mL. Does it hold?
false (0)

A record lists CCOC(=O)C1=C(C)NC(C)=C(C(=O)OCC)C1c1ccc(Cl)cc1 . Is its MIC below 1000 µg/mL?
true (1)

Is it true that MIC reported for CCOC(=O)C1=C(C)NC(C)=C(C(=O)OCC)C1c1ccc(OC)cc1 is less than 1000 µg/mL?
false (0)

Answer whether the compound CCOC(=O)C1=C(C)NC(C)=C(C(=O)OCC)C1c1ccccc1O has MIC strictly less than 1000 µg/mL
true (1)

* * *

Tested on: Streptococcus pyogenes
Experiment: Antibacterial activity against Streptococcus pyogenes ATCC 19615
Assay type: functional
Exercise: for every item that follows, state its recorded MIC.
Kindly answer with a numeric value in µg/mL, unit omitted.

Output measured MIC for this item: CCOC(=O)C1=C(C)NC(C)=C(C(=O)OCC)C1c1cc(OC)ccc1OC
250

Assign MIC to the following record: CCOC(=O)C1=C(C)NC(C)=C(C(=O)OCC)C1c1cc(OC)c(OC)c(OC)c1
2500

Using known records, supply MIC for CCOC(=O)C1=C(C)NC(C)=C(C(=O)OCC)C1c1cccc([N+](=O)[O-])c1
2500

Using known records, supply MIC for CCOC(=O)C1=C(C)NC(C)=C(C(=O)OCC)C1c1ccccc1O
250

Given CCOC(=O)C1=C(C)NC(C)=C(C(=O)OCC)C1c1ccccc1Cl , respond with its MIC.
125

Determine its reported MIC: CC1(C)S[C@@H]2[C@H](NC(=O)[C@H](N)c3ccccc3)C(=O)N2[C@H]1C(=O)O
0.06

Return value of MIC for input CCOC(=O)C1=C(C)N=C(C)/C(=C(/O)OCC)C1 , no commentary.
1250

Please report MIC for the following compound: CCOC(=O)C1=C(C)NC(C)=C(C(=O)OCC)C1c1ccc(Cl)cc1
125

Determine from records and report MIC for CCOC(=O)C1=C(C)NC(C)=C(C(=O)OCC)C1c1ccc(O)cc1
2500

Give a short answer stating reported MIC for CCOC(=O)C1=C(C)NC(C)=C(C(=O)OCC)C1c1ccccc1 .
2500

Entry CCOC(=O)C1=C(C)NC(C)=C(C(=O)OCC)C1c1ccc(OC)c(OC)c1 needs its MIC filled in; supply it.
1250

Determine from records and report MIC for CCOC(=O)C1=C(C)NC(C)=C(C(=O)OCC)C1c1ccc(OC)cc1
2500

Report MIC, nothing else, for this compound: CCOC(=O)C1=C(C)NC(C)=C(C(=O)OCC)C1c1ccc(O)c(OC)c1
125

Identify the reported MIC for the following entry. CCOC(=O)C1=C(C)NC(C)=C(C(=O)OCC)C1c1cccc(O)c1
1250

* * *

What MIC was measured for each of the following?
System: Staphylococcus aureus
Assay: Antibacterial activity against Staphylococcus aureus ATCC 25923
Assay type: functional
Express the result in µg/mL but write the number alone.

Provide MIC value for the following molecule: CCOC(=O)C1=C(C)NC(C)=C(C(=O)OCC)C1c1ccc(O)c(OC)c1
125

Answer with reported MIC of CCOC(=O)C1=C(C)NC(C)=C(C(=O)OCC)C1c1ccc(O)cc1
2500

Answer with the recorded MIC for the molecule listed here: CCOC(=O)C1=C(C)NC(C)=C(C(=O)OCC)C1c1ccc(Cl)cc1
125

Provide measured MIC value, entry: CCOC(=O)C1=C(C)NC(C)=C(C(=O)OCC)C1c1ccccc1O
250

Name the recorded MIC of the molecule listed here: CCOC(=O)C1=C(C)NC(C)=C(C(=O)OCC)C1c1ccccc1
1250
